# STUDY TARGET: T1, mouse NPR1 extracellular domain expressed with a C-terminal mouse IgG2a (mNPR1-mFc) (mouse)
# T1 chain: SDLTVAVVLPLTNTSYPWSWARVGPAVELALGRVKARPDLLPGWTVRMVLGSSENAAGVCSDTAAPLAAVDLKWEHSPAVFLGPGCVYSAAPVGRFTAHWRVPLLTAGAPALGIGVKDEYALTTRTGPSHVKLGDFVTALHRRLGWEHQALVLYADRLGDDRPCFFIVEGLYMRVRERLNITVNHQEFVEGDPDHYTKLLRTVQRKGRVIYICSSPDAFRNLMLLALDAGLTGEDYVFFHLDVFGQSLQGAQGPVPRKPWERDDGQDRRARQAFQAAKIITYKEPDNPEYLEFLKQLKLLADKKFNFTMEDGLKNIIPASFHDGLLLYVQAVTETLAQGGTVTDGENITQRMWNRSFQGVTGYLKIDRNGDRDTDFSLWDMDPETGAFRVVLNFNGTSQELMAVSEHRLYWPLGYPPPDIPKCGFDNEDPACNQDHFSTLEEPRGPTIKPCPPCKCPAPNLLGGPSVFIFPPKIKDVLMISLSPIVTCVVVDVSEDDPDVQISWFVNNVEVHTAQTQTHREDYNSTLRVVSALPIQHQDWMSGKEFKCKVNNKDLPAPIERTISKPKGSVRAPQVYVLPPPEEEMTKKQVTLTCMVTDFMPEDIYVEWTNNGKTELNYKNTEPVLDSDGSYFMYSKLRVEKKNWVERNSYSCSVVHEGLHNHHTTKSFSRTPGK
# ASSAY EXPLANATION: SPR, Tables 21 to 26
READOUT: binding result

BINDER	RESULT
mAb22035 (antibody, V domains shown) VH: EVQLVESGGGLVQPGRSLRLSCAASGFTFDDYAMHWVRQAPGKGLEWVSGISWNSGTIGYADSVKGRFTMSRDNAKNSLYLQMNSLRPEDTALYYCAKDMGVSLALWGAFDIWGQGTMVTVSS VL: DIQMTQSPSSLSASVGDKVTITCRASQNIRTYLNWYQQKPGKAPKVLISTASSLQSGVPSRFSGSGSGTDFTLTISSLQPEDFAVFYCQQSFGIPRTFGQGTKVEIK	no binding
mAb25479 (antibody, V domains shown) VH: QVQLVQSGAEVKKPGASVKVSCKASGYTFTGYYIHWVRQAPGQGLEWMGWINPNSIGTNYAQKFQGRVTLTRDTSISTAYMELSSLRSDDTAVYYCARGGSSSYYYYYYGMDVWGQGTTVTVSS VL: DIQMTQSPSSLSASVGDRVTITCRASQSIDNYLNWYQQKPGKAPKLLIYVASSLQSGVPSRFSGSGSGTDFTLTISSLQPEDFATYYCQQSYSTPLTFGGGTKVEIK	no binding
mAb25508 (antibody, V domains shown) VH: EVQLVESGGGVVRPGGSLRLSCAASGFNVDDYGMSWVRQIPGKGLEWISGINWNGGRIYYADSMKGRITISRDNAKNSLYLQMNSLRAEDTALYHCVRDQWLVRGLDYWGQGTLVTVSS VL: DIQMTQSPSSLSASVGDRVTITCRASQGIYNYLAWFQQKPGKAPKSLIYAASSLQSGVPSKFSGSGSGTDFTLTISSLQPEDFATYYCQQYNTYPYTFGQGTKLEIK	no binding
